# assay.text: Dog pharmacokinetics
# Type: in vivo, Beagle dog
# condition: plasma; Male Beagle Dog; 3.0 mg/kg po; suspension; mean n=2
# From the text: from Vital River (Beijing, China) and were typically 7-9 weeks of age at the time of dosing. During the pharmacokinetic studies all animals were housed individually. […] Serial blood samples were collected via the jugular vein cannula at predetermined timepoints after dosing. Animals were monitored for pain or distress throughout the study, with at least daily monitoring during normal husbandry prior to study start. […]
recorded.endpoint: Cmax (µg/mL)
Numbers only here, please. The scale is µg/mL.

[in] Name the reported Cmax value associated with the molecule Cc1ccc(N2CCN(C)CC2)cc1C(=O)NC1(c2cc(-c3cnn(C)c3)nc3ccccc23)CC1
[out] 0.354

###

# target: CYP2C9 (Homo sapiens, UniProt P11712)
# Sequence (P11712 whole entry): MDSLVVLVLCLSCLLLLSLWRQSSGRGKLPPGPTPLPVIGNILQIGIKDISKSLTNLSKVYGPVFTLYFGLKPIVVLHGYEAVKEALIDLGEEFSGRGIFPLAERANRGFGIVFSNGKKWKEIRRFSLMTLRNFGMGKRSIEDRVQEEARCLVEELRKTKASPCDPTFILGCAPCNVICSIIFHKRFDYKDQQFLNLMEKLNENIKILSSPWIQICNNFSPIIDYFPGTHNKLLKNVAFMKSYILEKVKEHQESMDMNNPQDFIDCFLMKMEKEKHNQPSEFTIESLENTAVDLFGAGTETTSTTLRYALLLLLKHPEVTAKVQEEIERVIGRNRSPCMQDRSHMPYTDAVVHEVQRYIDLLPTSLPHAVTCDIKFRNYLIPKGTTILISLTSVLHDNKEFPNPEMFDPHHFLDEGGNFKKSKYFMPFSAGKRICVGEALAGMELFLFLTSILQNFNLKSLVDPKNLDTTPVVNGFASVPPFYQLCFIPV
pIC50: −log10 of the molar value.
recorded.endpoint: pIC50

[in] Entry under review: Cc1ccc(N2CCN(C)CC2)cc1C(=O)NC1(c2cc(-c3cnn(C)c3)nc3ccccc23)CC1 [Compound 4] . Reported pIC50?
[out] < 4.52

###

# assay.text: Dog pharmacokinetics
# Type: in vivo, Beagle dog
# condition: plasma; Male Beagle Dog; 0.5 mg/kg iv; solution; mean n=2
recorded.endpoint: half-life
The reply should consist of the numeric value with the unit placed after it.

[in] Fill in: half-life of Cc1ccc(N2CCN(C)CC2)cc1C(=O)NC1(c2cc(-c3cnn(C)c3)nc3ccccc23)CC1 is ___
[out] 2.06 h

###

# assay.text: Metabolic stability in cryopreserved human hepatocytes
recorded.endpoint: hepatocyte CLint (µL/min/1e6 cells)
The answer is to be given in µL/min/1e6 cells; state only the numeric part.

As a guide, the following entries are already answered.
[in] GET /values?readout=hepatocyte CLint&item= Cc1ccc(N2CCN(C)CC2)cc1C(=O)N[C@H](C)c1cc(-c2cnn(C)c2)nc2ccccc12
[out] 12.8

[in] What do you have for Cc1ccccc1C(=O)N[C@H](C)c1cc(-c2cnn(C)c2)nc2ccccc12 ?
[out] 13.9

Continue with the compound presented below.
[in] Look up hepatocyte CLint: Cc1ccc(N2CCN(C)CC2)cc1C(=O)NC1(c2cc(-c3cnn(C)c3)nc3ccccc23)CC1
[out] 8.84

###

# assay.text: Dog pharmacokinetics
# Format: in vivo, Beagle dog
# condition: plasma; Male Beagle Dog; 0.5 mg/kg iv; solution; mean n=2; read-out: Vdss
recorded.endpoint: Vd (L/kg)
State the answer as a number, implicitly in L/kg.

[in] So what does the record say about Vd for Cc1ccc(N2CCN(C)CC2)cc1C(=O)NC1(c2cc(-c3cnn(C)c3)nc3ccccc23)CC1 [Compound 4] ?
[out] 1.59

###

# assay.text: Rat pharmacokinetics
# Assay type: in vivo, Wistar-Hannover rat
# condition: Wistar-Hannover, plasma; Male Wistar Hanover Rat; 1.0 mg/kg iv; solution; mean n=2; read-out: CLp
recorded.endpoint: clearance (mL/min/kg)
Express the result in mL/min/kg but write the number alone.

[in] Fill in the blank: the reported clearance of Cc1ccc(N2CCN(C)CC2)cc1C(=O)NC1(c2cc(-c3cnn(C)c3)nc3ccccc23)CC1 [Compound 4] is ____.
[out] 25.2

###

# assay.text: in vitro
# condition: dog, MDCK
recorded.endpoint: Papp (×10⁻⁶ cm/s)
A number alone suffices; assume ×10⁻⁶ cm/s.

[in] // lookup Papp for Cc1ccc(N)cc1C(=O)N[C@H](C)c1cccc2ccccc12
[out] 45.6
